All values here come from ChEMBL document CHEMBL3872273.

Tested on: Pseudomonas aeruginosa
Experiment: Inhibition of Pseudomonas aeruginosa Peptidyl-tRNA hydrolase assessed as reduction in peptidyl-tRNA cleavage to free tRNA by gel electrophoresis
The source made the active and inactive calls. No cut-off for these calls is given here.
experimental-endpoint: inhibition

CCC[C@H]1OCc2c(OC)cc(=O)oc2[C@H]1O | Active
CCC[C@H]1Cc2oc(=O)cc(OC)c2CO1 | Active
COc1cc(=O)oc2c1CO[C@@H](CO)C2 | Active
COc1cc(=O)oc2c1CO[C@@H](C[C@@H](C)O)C2 | Active
COC(=O)[C@]12Oc3ccc(-c4ccc5c(c4O)C(=O)C4=C(O)C[C@@H](C)[C@H](O)[C@@]4(C(=O)OC)O5)c(O)c3C(=O)C1=C(O)C[C@@H](C)[C@@H]2O | Active
COC(=O)[C@]12Oc3cccc(O)c3C(=O)C1=C(O)C[C@@H](C)[C@@H]2O | Active

Consider now this further molecule.
query: # query: inhibition of entry `COC(=O)[C@]12Oc3cccc(O)c3C(=O)[C@@H]1[C@H](O)C[C@@H](C)[C@@H]2O`
result: Active

====

System: Staphylococcus aureus
Experiment: Antimicrobial activity against Staphylococcus aureus
Assay type: functional
Examples of molecules with documented MIC follow.

CC[C@H](C)[C@@H]1NC(=O)[C@H](CCC(N)=O)N(C)C(=O)[C@@H](C(C)C)N(C)C(=O)CNC(=O)[C@@H]2CCCN2C(=O)[C@H](Cc2ccccc2)NC(=O)[C@H]([C@@H](C)CC)OC(=O)[C@H](CCC(=O)O)N(C)C(=O)[C@H](C(C)C)NC(=O)[C@@H]2CCCCN2C1=O | > 98 µg/mL
CCC[C@H]1OCc2c(OC)cc(=O)oc2[C@H]1O | > 145 µg/mL
COC(=O)[C@]12Oc3cccc(O)c3C(=O)[C@@H]1[C@@H](O)C[C@@H](C)[C@@H]2O | > 75 µg/mL
COc1cc(=O)oc(CO)c1C | > 25 µg/mL

Consider now this further molecule.
query: # query: MIC of entry `COC(=O)[C@]12Oc3cccc(O)c3C(=O)[C@@H]1[C@H](O)C[C@@H](C)[C@@H]2O`
result: > 100 µg/mL

====

Test system: Staphylococcus aureus
Assay: Antimicrobial activity against Staphylococcus aureus
Assay type: functional
Examples of compounds with documented MIC follow.

query: # query: MIC of entry `CCC[C@H]1Cc2oc(=O)cc(OC)c2[C@H](O)O1`
result: > 75 µg/mL

query: # query: MIC of entry `COc1cc(=O)oc2c1CO[C@@H](CO)C2`
result: > 53 µg/mL

query: # query: MIC of entry `CCC[C@@H](O)Cc1oc(=O)cc(OC)c1C`
result: > 155 µg/mL

query: # query: MIC of entry COC(=O)[C@]12Oc3ccc(-c4ccc5c(c4O)C(=O)C4=C(O)C[C@@H](C)[C@H](O)[C@@]4(C(=O)OC)O5)c(O)c3C(=O)C1=C(O)C[C@@H](C)[C@@H]2O [SECALONIC ACID A]
result: > 75 µg/mL

query: # query: MIC of entry `CC[C@H](C)[C@@H]1NC(=O)[C@H](CCC(N)=O)N(C)C(=O)[C@@H](C(C)C)N(C)C(=O)CNC(=O)[C@@H]2CCCN2C(=O)[C@H](Cc2ccccc2)NC(=O)[C@H]([C@@H](C)CC)OC(=O)[C@H](CCC(=O)O)N(C)C(=O)[C@H](C(C)C)NC(=O)[C@@H]2CCCN2C1=O`
result: > 125 µg/mL

====

Test: Inhibition of Salmonella typhimurium Peptidyl-tRNA hydrolase assessed as reduction in peptidyl-tRNA cleavage to free tRNA by gel electrophoresis
Design: species or system Salmonella enterica subsp. enterica serovar Typhimurium
experimental-endpoint: pIC50
Note on pIC50: it is the negative log10 of concentration, concentration in mol/L.

query: # query: pIC50 of entry `COC(=O)[C@]12Oc3ccc(-c4ccc5c(c4O)C(=O)C4=C(O)C[C@@H](C)[C@H](O)[C@@]4(C(=O)OC)O5)c(O)c3C(=O)C1=C(O)C[C@@H](C)[C@@H]2O`
result: 2.85

====

Examples of compounds with documented MIC follow.
Tested on: Staphylococcus aureus
Test: Antimicrobial activity against Staphylococcus aureus
Type: functional

COc1cc(=O)oc2c1CO[C@@H](CC(C)=O)C2 | > 25 µg/mL
CCC[C@H]1Cc2oc(=O)cc(OC)c2CO1 | > 203 µg/mL
CCCC(O)Cc1oc(=O)cc(OC)c1CO (racemic) | > 55 µg/mL
CCCCCc1oc(=O)cc(OC)c1CO | > 140 µg/mL
CCCCC(O)c1cc(OC)c(C)c(=O)o1 (racemic) | > 35 µg/mL

Consider now this further compound.
query: Under Staphylococcus aureus: MIC value of `COC(=O)[C@]12Oc3cccc(O)c3C(=O)C1=C(O)C[C@@H](C)[C@@H]2O` ?
result: > 65 µg/mL
